Measured Cellular growth rate (%) values are reported for all entries that follow.
test system: 786-0; experiment: In vitro cytotoxicity, Development Therapeutics Program; format: cell-based; conditions: 786-0, renal cancer; 1.0×10^−5 M
reported metric: Cellular growth rate (%)

[[record]]
molecule = "CC(=O)Nc1ccc2c(c1)C(=O)c1cc(NC(C)=O)ccc1C2=O [Compound 26, 2,7-Bis(acetamido)anthraquinone]"
target_desc = "786-0"
unit_annotation = "%"
test_result = 97.72

[[record]]
molecule = "O=C(CCN1CCCC1)Nc1ccc2c(c1)C(=O)c1cc(NC(=O)CCN3CCCC3)ccc1C2=O [Compound 18]"
target_desc = "786-0"
unit_annotation = "%"
test_result = 40.51

[[record]]
molecule = "O=C1c2ccc(NC(=O)C3CC3)cc2C(=O)c2cc(NC(=O)C3CC3)ccc21 [Compound 32]"
target_desc = "786-0"
unit_annotation = "%"
test_result = 94.92

[[record]]
molecule = "CCN(CC)CCC(=O)Nc1ccc2c(c1)C(=O)c1cc(NC(=O)CCN(CC)CC)ccc1C2=O [Compound 16]"
target_desc = "786-0"
unit_annotation = "%"
test_result = 24.72

[[record]]
molecule = "CN(C)CC(=O)Nc1ccc2c(c1)C(=O)c1cc(NC(=O)CN(C)C)ccc1C2=O [Compound 8]"
target_desc = "786-0"
unit_annotation = "%"
test_result = 68.60


###

tested on: SK-MEL-28; assay: In vitro cytotoxicity, Development Therapeutics Program; type: cell-based; details: SK-MEL-28, melanoma; 1.0×10^−5 M
Classify: criterion met when Cellular growth rate (%) is strictly less than 10%; criterion not met when Cellular growth rate (%) is not.

[[record]]
test_smiles = "CCN(CC)CCC(=O)Nc1ccc2c(c1)C(=O)c1cc(NC(=O)CCN(CC)CC)ccc1C2=O"
class_name = "criterion met"

[[record]]
test_smiles = "O=C1c2ccc(NC(=O)C3CC3)cc2C(=O)c2cc(NC(=O)C3CC3)ccc21"
class_name = "criterion not met"

[[record]]
test_smiles = "CN(C)CC(=O)Nc1ccc2c(c1)C(=O)c1cc(NC(=O)CN(C)C)ccc1C2=O"
class_name = "criterion not met"

[[record]]
test_smiles = "CC(=O)Nc1ccc2c(c1)C(=O)c1cc(NC(C)=O)ccc1C2=O"
class_name = "criterion not met"

[[record]]
test_smiles = "O=C(CCN1CCCC1)Nc1ccc2c(c1)C(=O)c1cc(NC(=O)CCN3CCCC3)ccc1C2=O"
class_name = "criterion not met"


###

assay: MTT assay in BJ1 cells; assay type: cell-based; conditions: human, hTERT-BJ1-PTERT(3.4)-SEAP cells; BJ1; compound concentration 100 μM; read-out: MTT (Inhibition μM ± SD)
reported metric: viability at 48 h, 100 µM (%)

[[record]]
molecule = "O=C(CCN1CCCCC1)Nc1ccc2c(c1)C(=O)c1cc(NC(=O)CCN3CCCCC3)ccc1C2=O [Compound 19]"
reported_metric = "viability at 48 h, 100 µM"
unit_annotation = "%"
test_result = 41

[[record]]
molecule = "O=C(Cc1ccccc1)Nc1ccc2c(c1)C(=O)c1cc(NC(=O)Cc3ccccc3)ccc1C2=O [Compound 30, 2,7-Bis(phenylacetamido)anthraquinone]"
reported_metric = "viability at 48 h, 100 µM"
unit_annotation = "%"
test_result = 86

[[record]]
molecule = "O=C(CN1CCCCC1)Nc1ccc2c(c1)C(=O)c1cc(NC(=O)CN3CCCCC3)ccc1C2=O [Compound 7]"
reported_metric = "viability at 48 h, 100 µM"
unit_annotation = "%"
test_result = 22

[[record]]
molecule = "CCCNCCC(=O)Nc1ccc2c(c1)C(=O)c1cc(NC(=O)CCNCCC)ccc1C2=O [Compound 21]"
reported_metric = "viability at 48 h, 100 µM"
unit_annotation = "%"
test_result = 38

[[record]]
molecule = "CN1CCN(CCC(=O)Nc2ccc3c(c2)C(=O)c2cc(NC(=O)CCN4CCN(C)CC4)ccc2C3=O)CC1 [Compound 23]"
reported_metric = "viability at 48 h, 100 µM"
unit_annotation = "%"
test_result = 61

[[record]]
molecule = "CCCNCC(=O)Nc1ccc2c(c1)C(=O)c1cc(NC(=O)CNCCC)ccc1C2=O [Compound 9]"
reported_metric = "viability at 48 h, 100 µM"
unit_annotation = "%"
test_result = 42

[[record]]
molecule = "CCNCCC(=O)Nc1ccc2c(c1)C(=O)c1cc(NC(=O)CCNCC)ccc1C2=O [Compound 22]"
reported_metric = "viability at 48 h, 100 µM"
unit_annotation = "%"
test_result = 42

